Molecular target: Beta-lactamase L1 (Stenotrophomonas maltophilia)
Assay: Inhibition of Stenotrophomonas maltophilia L1 metallo beta lactamase at 200 uM
quantityKind: inhibition (%)
The response must be a number in % with no trailing unit.

                                   compound  reportedvalue
0  O=C(COc1cccc2ccccc12)NC(CCS)C(=O)N[C@H](Cc1ccccc1)C(=O)O (stereo not given in full)             81
1  C[Si](C)(C)CCC(=O)NC(CCS)C(=O)N[C@H](Cc1ccccc1)C(=O)O (stereo not given in full)             81
2  O=C(CCc1cccnc1)NC(CCS)C(=O)N[C@H](Cc1ccccc1)C(=O)O (stereo not given in full)             41
3  O=C(NC(CCS)C(=O)N[C@H](Cc1ccccc1)C(=O)O)c1ccccc1[N+](=O)[O-] (stereo not given in full)             61

Give me measured inhibition, please, for this compound: O=C(NC(CCS)C(=O)N[C@H](Cc1ccccc1)C(=O)O)c1cccc(O)c1 (stereo not given in full)
41

Every entry's value here was drawn from ChEMBL document CHEMBL1146889.
